Test system: HepG2 3D spheroids
measurementNotes: Cell death assay (PI staining) in 3D cultured HepG2 spheroids
Type: cell-based, human
protocolConditions: Homo sapiens, HepG2, 24 h, read-out: EC50 cell death 3D HepG2, 5 × 24 h exposure
Field: EC50. Provide a value for each of the molecules that follow.
One number for each entry, in nM.

Return reported EC50 values for all items listed beneath this line.
1. C=C(C)[C@H]1Cc2c(ccc3c2O[C@@H]2COc4cc(OC)c(OC)cc4[C@@H]2C3=O)O1
2. CCCCCC[C@H]1C(=O)O[C@H](C)[C@H](NC(=O)c2cccc(NC=O)c2O)C(=O)O[C@@H](C)[C@@H]1OC(=O)CC(C)C [Antimycin A]

[out]
1. 28
2. 74

Attribution: paper PMC7395062
